The origin of these recorded values is patent US10927078B2.

- TGT: indoleamine 2, 3-dioxygenase (IDO1) (Homo sapiens, UniProt P14902)
- Sequence (P14902 whole entry): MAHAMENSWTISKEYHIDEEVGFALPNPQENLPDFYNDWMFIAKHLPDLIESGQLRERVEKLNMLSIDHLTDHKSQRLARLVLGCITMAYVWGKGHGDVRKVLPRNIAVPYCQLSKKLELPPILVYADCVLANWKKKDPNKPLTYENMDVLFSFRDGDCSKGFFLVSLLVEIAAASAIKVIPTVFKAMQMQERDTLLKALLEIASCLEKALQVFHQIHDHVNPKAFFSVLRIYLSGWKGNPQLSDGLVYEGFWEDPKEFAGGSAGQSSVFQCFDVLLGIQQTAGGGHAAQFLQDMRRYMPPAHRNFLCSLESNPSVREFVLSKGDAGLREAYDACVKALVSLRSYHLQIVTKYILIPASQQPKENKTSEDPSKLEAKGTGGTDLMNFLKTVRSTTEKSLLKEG
- MEASUREMENT DESCRIPTION: PBMC IDO1 assay (kynurenine via mass spectrometry)
- Assay type: cell-based
- CONDITION NOTES: human PBMC stimulated with IFN-γ and LPS, 2 days, kynurenine by mass spectrometry; recorded as pIC50; read-out: PBMC PXC50_ (converted)
MEASURE NAME: IC50 (nM)

In the examples that follow, each entry is paired with its recorded IC50.
CC(C)CC(NC(=O)c1ccc(F)cc1)C1CCN(C(=O)Oc2ccncc2F)CC1 (stereo not shown) [Example 47] :: 10
CC(C)CC(NC(=O)c1ccc(F)cc1)C1CCN(C(=O)Oc2ccc(F)cc2)CC1 (stereo not shown) [Example 50] :: 12.6
COc1c(F)cccc1OC(=O)N1CCC(C(CC(C)C)NC(=O)c2ccc(F)cc2)CC1 (stereo not shown) [Example 13] :: 2.51
COc1cc(OC(=O)N2CCC(C(NC(=O)c3ccc(F)cc3)c3ccncc3)CC2)ccn1 (stereo not shown) [Example 93] :: 794
CC(C)CC(NC(=O)c1cccc2cn[nH]c12)C1CCN(C(=O)Oc2ccccc2)CC1 (stereo not shown) [Example 110] :: 12.6
CC(C)CC(NC(=O)c1ccc(F)cc1)C1CCN(C(=O)Oc2cccc(C#N)c2F)CC1 (stereo not shown) [Example 41] :: 7.94
Cc1c(F)cccc1OC(=O)N1CCC([C@@H](C)NC(=O)c2ccc(Cl)s2)CC1 [Example 36] :: 6.31
O=C(NC(C1CC1)C1CCN(C(=O)Oc2ccnc(F)c2)CC1)c1ccc(F)cc1 (stereo not shown) [Example 71] :: 158

(1) O=C(NC(c1ccncc1)C1CCN(C(=O)Oc2ccncc2)CC1)c1ccc(F)cc1 (stereo not shown) [Example 94]
(2) C#Cc1ccc(C(=O)NC(c2ccccc2)C2CCN(C(=O)OC(C)(C)C)CC2)cc1 (stereo not shown) [Example 78]
Would you mind telling me which has the lower recorded IC50 between 1 and 2 ? // output: label of the selected item
2

(P) CC(C)CC(NC(=O)c1ccccc1)C1CCN(C(=O)Oc2ccccc2)CC1 (stereo not shown) [Example 39]
(Q) CC(C)C[C@H](NC(=O)c1ccc(F)cc1)C1CCN(C(=O)Oc2ccccc2)CC1 [Example 69]
Would you mind telling me which has the lower recorded IC50 between P and Q ? // output: label of the selected item
P
(P: 7.94 nM, Q: 126 nM)

(A) Cc1ncnc(C)c1OC(=O)N1CCC([C@@H](CC(C)C)NC(=O)c2ccc(Cl)cc2)CC1 [Example 107]
(B) Cc1nccc(OC(=O)N2CCC([C@H](NC(=O)c3ccc(Cl)s3)c3ccccc3)CC2)c1C [Example 1]
(C) CC(C)CC(NC(=O)c1ccc(Cl)cc1)C1CCN(C(=O)OCc2nccs2)CC1 (stereo not shown) [Example 64]
# ascending order, key=IC50 Answer format: the labels, in the requested order.
B, A, C
